- Subject Of Test: T1, cynomolgus monkey PD1 human Fc tagged recombinant protein (cynomolgus monkey, UniProt Q15116 25-170 (human entry), limits assumed)
- T1 construct: also called cyno PD1-Fc; cyno PD1; not shown: human Fc tag
- T1 chain: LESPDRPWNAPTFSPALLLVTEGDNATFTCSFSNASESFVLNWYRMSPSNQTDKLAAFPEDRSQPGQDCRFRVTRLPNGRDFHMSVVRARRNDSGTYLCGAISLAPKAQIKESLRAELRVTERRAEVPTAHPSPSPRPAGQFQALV
- Measurement Description: direct titration ELISA, IgG1 null on coated PD1-Fc (FIG. 3A)
Value Type: binding result

MAB04 IgG1 null (antibody, V domains shown, Human IgG1 null format (L234A, L235A, G237A) with human C kappa; only variable domains are tied to the clone) VH: EVQLVESGGGLVQPGGSLRLSCAASGFTFSSYMMSWVRQAPGKGLEWVATISGGGANTYYPDSVKGRFTISRDNAKNSLYLQMNSLRAEDTAVYYCARQLYYFDYWGQGTTVTVSS VL: DIQMTQSPSSLSASVGDRVTITCLASQGIGPWLSWYQQKPGKAPKLLIYTATSLADGVPSRFSGSGSGTDFTLTISSLQPEDFATYYCQQVSVTPFTFGGGTKVEIK :: binds
MAB02A03 IgG1 null (antibody, V domains shown, Human IgG1 null format (L234A, L235A, G237A) with human C kappa; only variable domains are tied to the clone) VH: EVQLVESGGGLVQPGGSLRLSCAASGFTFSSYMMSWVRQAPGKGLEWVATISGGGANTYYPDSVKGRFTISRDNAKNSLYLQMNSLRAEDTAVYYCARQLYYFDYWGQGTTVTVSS VL: DIQMTQSSSSLSASVGDRVTITCLASQGIGPWLSWYQQKPGKAPKLLIYTATSLADGVPSRFSGSGSGTDFTLTISSLQPEDFATYYCQQVYSIPWTFGGGTKVEIK :: binds
